test: ATP-based viability of Huh7 replicon cells – cell-based, CellTiter-Glo luminescence, basal, 48 h, cytotoxicity control for HCV replication inhibitor project, primary screen (AID 1143); conditions: higher = more signal, called active from +8 up or from −8 down;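 also: Huh7 hepatoma cells carrying a hepatitis C replication reporter with no stimulus; test concentration not given here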
Activity calls are given as the source filed them.
Catalogue of compounds with associated z-score
Observed Property: z-score

# Compound, Reading
data = [
    ("COCCOC(=O)N1C(=O)[C@@]2(c3cc(C#CC4(O)CCCCCC4)ccc31)[C@H](C(=O)Nc1nc3ccccc3s1)[C@H]1C(=O)O[C@H](c3ccccc3)[C@H](c3ccccc3)N1[C@@H]2c1ccccc1OCCO", "-2.5 (inactive)"),
    ("O=C1NC(=O)C2C1C=CC(C(O)C=Cc1ccc([N+](=O)[O-])cc1)N2Nc1ccc(Cl)cc1Cl (configuration not stated)", "0.099 (inactive)"),
    ("CS(=O)(=O)CCOC(=O)C1=CC(CCCO)=CC(C2CC2)N(Cc2cc3c(cc2Br)OCO3)C=C1C(=O)OCCS(C)(=O)=O (configuration not stated)", "-0.737 (inactive)"),
    ("OB1C=CCC(CCc2ccccc2)O1 (configuration not stated)", "-2.16 (inactive)"),
    ("CN1C(=O)C2C=CC(C(O)c3c(F)cccc3Cl)N(NC(=O)OC(C)(C)C)C2C1=O (configuration not stated)", "0.736 (inactive)"),
    ("C=C[C@H](C)[C@@H](OC(=O)Nc1ccc(SC)cc1)c1ccc(O)c2ccccc12", "-1.08 (inactive)"),
    ("COc1ccc([C@H]2C[C@H]3C(Br)=C[C@@]2(CO)C(=O)[C@]32CO2)cc1", "0.187 (inactive)"),
    ("CCCCC(=C=CC[C@H](O)c1cccc(OCCO)c1)C[C@H](O)c1ccccn1", "-2.42 (inactive)"),
    ("CC[C@@H]1C=C(C(=O)O)[C@H](c2ccc(C)cc2)N1S(=O)(=O)c1ccc(C)cc1", "-0.52 (inactive)"),
    ("COc1ccc([Si](C)(C)[C@@H]2[C@@H](CCO)O[C@]3(C(=O)N(Cc4cccc(N5CCOC5=O)c4)c4ccccc43)[C@H]2C)cc1", "-5.47 (inactive)"),
    ("Cc1ccc(/C=C/C=O)cc1", "0.0606 (inactive)"),
    ("O=C1C2C=CC(C(O)c3cc(C(F)(F)F)cc(C(F)(F)F)c3)N(Nc3ccccc3)C2C(=O)N1c1ccccc1 (configuration not stated)", "-1.01 (inactive)"),
    ("O=c1cccc(-c2ccccc2Cl)o1", "-0.759 (inactive)"),
    ("C[N+](C)(C)CCCC[C@@H]1NC(=O)[C@H]2C[C@@H](C(=O)NCCCCCCNC(=O)CS)[C@@H](c3ccc(O)cc3)N2C1=O", "-0.798 (inactive)"),
    ("COC(=O)[C@@]1(Cc2ccc(F)cc2)[C@H]2c3cc(C(=O)N(C)C)n(Cc4ccc(C)o4)c3C[C@H]2CN1C(=O)c1ccccc1", "-2.07 (inactive)"),
    ("C#CCOc1ccc(C[C@@H](C(=O)OC)N(CC#C)[C@@H](/C=C/C2CC2)[C@H](O)Cc2ccccc2)cc1", "-2.59 (inactive)"),
    ("CN1C(=O)C2C=CC(C(O)c3ccc(F)cc3)N(N(c3ccccc3)c3ccccc3)C2C1=O (configuration not stated)", "0.319 (inactive)"),
    ("O=C1C2C=CC(C(O)c3c(F)cccc3Cl)N(Nc3ccccc3F)C2C(=O)N1c1ccccc1 (configuration not stated)", "1.04 (inactive)"),
    ("C=CCNC(=O)[C@@H]1[C@H]2C(=O)O[C@H](c3ccccc3)[C@H](c3ccccc3)N2[C@H](c2ccc(OCCO)cc2)[C@@]12C(=O)N(C(=O)OCCOC)c1ccc(C#CCNC(N)=O)cc12", "-1.1 (inactive)"),
    ("CC(C)C(=C=CC[C@H](O)c1ccc(CO)o1)CCO", "0.243 (inactive)"),
    ("O=C1OCCC/C=C\\[C@H]2OC34C=CCN(c5ccc6ccccc6c5)C(=O)[C@H]3N(CCCCCO)C(=O)[C@@H]4C12 (some centres not stated)", "0.123 (inactive)"),
    ("COCCOC(=O)N1C(=O)[C@@]2(c3cc(C#CC4=CCCCC4)ccc31)[C@H](c1ccc(OCCO)cc1)N1[C@H](c3ccccc3)[C@H](c3ccccc3)OC(=O)[C@H]1[C@@H]2C(=O)N1CCc2cc(OC)c(OC)cc2C1", "-0.496 (inactive)"),
    ("[N-]=[N+]=Nc1ccccc1C[C@]1(C(=O)NCC(O)CO)N=C(c2ccc(OCCCO)cc2)O[C@H]1c1ccccc1 (some centres not stated)", "-3.23 (inactive)"),
    ("C=C(CCCC)/C(=C/C[C@@H](OC(C)=O)c1ccccc1OCCO)c1cc(C(=O)OC)ccc1OC", "-0.774 (inactive)"),
    ("COC(=O)[C@@]1(Cc2ccccc2)[C@H]2c3cc(C(=O)N4CCCC4)n(Cc4c(CO)[nH]cc(C)c4=O)c3C[C@H]2CN1C(=O)c1ccccc1", "0.0519 (inactive)"),
    ("COc1ccc([C@H]2C[C@H]3C(I)=C[C@@H]2C(=O)[C@]32CO2)cc1", "-0.307 (inactive)"),
    ("[N-]=[N+]=Nc1ccccc1C[C@@]1(C(=O)N2CCCCC2)N=C(c2ccc(OCCCO)cc2)O[C@@H]1c1ccccc1", "-5.13 (inactive)"),
    ("CN1C(=O)C2C=CC(C(O)C=Cc3ccc([N+](=O)[O-])cc3)N(Nc3ccccc3)C2C1=O (configuration not stated)", "-0.143 (inactive)"),
    ("C#CCNCc1ccccc1", "-0.0359 (inactive)"),
    ("CCOC(=O)C[C@H]1[C@H](OC(=O)c2ccc(-c3ccccc3)cc2)[C@@H](NC(=O)c2ccccc2)c2cc(OCCCO)ccc2N1C(=O)c1ccc2ccccc2n1", "0.775 (inactive)"),
    ("O=C1C[C@@](C(=O)NCc2ccccc2)(c2ccc([N+](=O)[O-])cc2)[C@@H](c2ccc(CO)cc2)N1CC12CC3CC(CC(C3)C1)C2", "-4.73 (inactive)"),
    ("O=C1N(CCS(=O)(=O)c2ccccc2)c2ccccc2[C@@H]2OC(c3ccc(OCCCO)cc3)=N[C@]12Cc1ccccc1", "-3.61 (inactive)"),
]
